Here the recorded growth inhibition is given for each entry.
assay: NCI Yeast Anticancer Drug Screen. Data for the cln2 rad14 strain (AID 165);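 also: 0% = growth equal to vehicle treated cultures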; settings: S. cerevisiae cln2 rad14 strain, at 5.0 µM (retest, dose inferred, filed as 0.5), active compounds read high
This is part of a sample that, as a whole, favours compounds with a hit. Of some 79,000 tested, about 15% had one in any assay.
MEASUREMENT LABEL: growth inhibition (%)

* Cc1oc2c(c1C(=O)c1ccccc1)C(=O)c1ccccc1C2=O | 22
* c1ccc(CN2CCC3(CC2)SSC2(CCN(Cc4ccccc4)CC2)S3)cc1 | 4
* CC(=O)c1c(-c2ccco2)c(C#N)c(=S)n(C2OC(CO)C(O)C(O)C2O)c1-c1ccccc1 (centres undefined) | 14
* C=C(Br)CN(CC)CC | -51

====

assay: NCI Yeast Anticancer Drug Screen. Data for the cln2 rad14 strain (AID 165);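 also: 0% = growth equal to vehicle treated cultures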; details: S. cerevisiae cln2 rad14 strain, at 50.0 µM (retest, dose inferred, filed as 5.0)
Compounds without any hit were thinned out: in the full panel of roughly 79,000, 15% have a hit. The source made the active and inactive calls. Cut-off read from the data, not from the text of the source: active = growth inhibition above about 70%; inactive = the rest.
Outcomes: 1 = active, -1 = inactive

* Cc1c2ccccc2c(CO)c2cc(F)c3ccccc3c12 | 1
* [CH3][Sn]1([CH3])[O]C(=O)CCN=Cc2c(ccc3ccccc23)[O][Sn]([CH3])([CH3])[O]C(=O)CCN=Cc2c(ccc3ccccc23)[O]1 | 1
* CCC[CH2][Sn]([CH2]CCC)([O]C(=O)c1cc(F)cc(F)c1)[O][Sn]([CH2]CCC)([CH2]CCC)[O]C(=O)c1cc(F)cc(F)c1 | 1
* Nc1ccc2c(c1)Cc1c(Cl)cccc1-2 | 1
* CN(/N=C/c1ccc(C(=O)O)cc1)C1=NCCCCN1 | -1
* CCOC(=O)c1c(C)[nH]c(C(=O)C(N)C(=O)OCC)c1C (stereo not drawn) | -1
* COC1=C2C[C@@H](C)C[C@@H](OC)[C@@H](O)[C@H](C)/C=C(\C)[C@@H](OC(N)=O)[C@H](OC)/C=C\C=C(/C)C(=O)NC(=CC1=O)C2=O | 1
* CN(C)CCC(=O)c1ccco1 | 1
* Cc1c(NC(=O)CCl)c(=O)oc2c(C)c3occc(=O)c3cc12 | 1
* COc1ccc2ccc(/C=C/[N+](=O)[O-])cc2c1OC | 1
* CC(C)c1ccc2c(c1)CCC1C(C)(CN)CCCC21C (stereo not drawn) | 1
* c1cc2ccc1C1NCCCN1CCN1CCCNC1c1ccc(cc1)C1NCCCN1CCN1CCCNC21 (stereo not drawn) | -1
* CC(C)Cn1cnc2c(SCc3ccc(Cl)cc3Cl)nc(N)nc21 | -1

====

assay: NCI Yeast Anticancer Drug Screen. Data for the sgs1 mgt1 strain (AID 161);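 also: 0% = growth of cultures given vehicle only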; settings: S. cerevisiae sgs1 mgt1 strain, at 50.0 µM (retest, dose inferred, filed as 5.0), active compounds read high
Compounds without any hit were thinned out: in the full panel of roughly 79,000, 15% have a hit.
Values of growth inhibition greater than or equal to 20% map to met; values below map to not met.

* COc1ccc(C(=O)Nc2ccccc2OC)cc1 | not met
* COc1ccc(N=Nc2ccc(O)cc2)cc1 | not met
* COC(=O)C1=C(C)NC(C)=C(C(=O)OC)C1c1ccc(/[N+]([O-])=C/c2ccccc2)cc1 | met
* COc1ccc(CCCCC(=O)O)cc1O | not met
* Cc1cc(=O)c2cc(N=Cc3ccc([N+](=O)[O-])o3)ccc2o1 | met
